study-target: RSV fusion glycoprotein (RSV F) on RSV-A2 virus (respiratory syncytial virus, UniProt P03420 26-574)
assay-explanation: cell-based or functional assay
measurement-label: Neutralization IC50 (RSV subtype A) (µg/mL)
Give your result in µg/mL as a bare value.

Reported Neutralization IC50 (RSV subtype A) ( ADI-41416 (antibody, V domains shown, IgG1) VH: EVQLVESGGGLVKPGGSLRLSCAASGFKFSSYTMNWVRQAPGKGLEWVSSITGGSSFINYADSVKGRFTISRDNAKNSLYLQMVSLRAEDTAVYYCARDLSSHITIFGAVSDYWGRGTTVTVSS VL: QSVLTQPPSVSGAPGQRVTISCTGSSSNIGAGYDAHWFQQLPGSAPKLLIYANTNRPSGVPDRFSGSKSGTSASLAITGLQAEDEADYYCQSYDSTLSVVFGGGTKLTVL ) = 0.05
